Cited source for all entries: patent US9434743B2

Here the recorded IC50 is given for each entry.
target: human MetAP2 enzyme (Homo sapiens); test: MetAP2 enzyme assay, enzyme complexed with cobalt ions; conditions: MetAP2 Co pIC50, MetAP2 enzyme complexed with cobalt ions; Met-AMC substrate at Km

- Compound: "Cn1cc(C(=O)NC2CC2)cc(-c2cc(C(F)(F)F)cc3[nH]ncc23)c1=O [Example 357]"
  IC50: "200 nM"
- Compound: "Cc1nnc(-c2ccc(-c3cc(C(F)(F)F)cc4[nH]ncc34)cc2)o1 [Example 120]"
  IC50: "63.1 nM"
- Compound: "CN(C)C(=O)c1ccccc1-c1cc(C(F)(F)F)cc2[nH]ncc12 [Example 47]"
  IC50: "501 nM"
- Compound: "Cc1nnc(-c2cccc(-c3cc(C(F)(F)F)cc4[nH]ncc34)c2)o1 [Example 37]"
  IC50: "39.8 nM"
- Compound: "Cc1nc(N2CCCC2)ccc1-c1cc(C(F)(F)F)cc2[nH]ncc12 [Example 384]"
  IC50: "79.4 nM"
- Compound: "O=S(=O)(CCO)c1ccccc1-c1cc(C(F)(F)F)cc2[nH]ncc12 [Example 182]"
  IC50: "794 nM"
- Compound: "OCc1ccc(Cl)c(-c2cc(C(F)(F)F)cc3[nH]ncc23)c1 [Example 128]"
  IC50: "39.8 nM"
- Compound: "Cn1c(-c2cc(C(F)(F)F)cc3[nH]ncc23)cc2ccccc21 [Example 51]"
  IC50: "2510 nM"
- Compound: "NC(=O)c1ccc(-c2cc(C(F)(F)F)cc3[nH]ncc23)c(F)c1 [Example 321]"
  IC50: "20 nM"
- Compound: "CN(C)S(=O)(=O)c1cccc(-c2cc(C(F)(F)F)cc3[nH]ncc23)c1 [Example 108]"
  IC50: "79.4 nM"
- Compound: "Oc1cccnc1-c1cc(C(F)(F)F)cc2[nH]ncc12 [Example 214]"
  IC50: "501 nM"
- Compound: "CNC(=O)Cn1nc(C)c(-c2cc(C(F)(F)F)cc3[nH]ncc23)c1C [Example 367]"
  IC50: "50.1 nM"
- Compound: "COc1ccc(-c2cc(C(F)(F)F)cc3[nH]ncc23)c(C(N)=O)n1 [Example 201]"
  IC50: "794 nM"
- Compound: "CN(C)C(=O)Cn1c(=O)c(-c2cc(C(F)(F)F)cc3[nH]ncc23)cn(C)c1=O [Example 309]"
  IC50: "1000 nM"
- Compound: "CNC(=O)c1ccc(-c2cc(C(F)(F)F)cc3[nH]ncc23)cc1F [Example 92]"
  IC50: "50.1 nM"
- Compound: "O=C1Cc2cc(-c3cc(C(F)(F)F)cc4[nH]ncc34)ccc2N1 [Example 235]"
  IC50: "12.6 nM"
- Compound: "CCNC(=O)Cn1c(=O)c(-c2cc(C(F)(F)F)cc3[nH]ncc23)cn(C)c1=O [Example 302]"
  IC50: "501 nM"
- Compound: "Cn1cc(-c2cc(C(F)(F)F)cc3[nH]ncc23)c(=O)n(C)c1=O [Example 82]"
  IC50: "501 nM"

---

target: UniProtKB P50579; experiment: MetAP2 enzyme assay, enzyme complexed with manganese ions; conditions: MetAP2 Mn pIC50, MetAP2 enzyme complexed with manganese ions; Met-AMC substrate at Km
Here the recorded log10 of IC50 is given for each entry.
Quantity name: log10 of IC50 (log10 of the value in nM)

- Test smiles: "NC(=O)c1ccc(F)c(-c2cc(C(F)(F)F)cc3[nH]ncc23)c1"
  log10 of IC50: 1.10
- Test smiles: "O=C1NCc2c1cccc2-c1cc(C(F)(F)F)cc2[nH]ncc12"
  log10 of IC50: 0.70
- Test smiles: "FC(F)(F)c1cc(-c2cnc(N3CCCC3)nc2)c2cn[nH]c2c1"
  log10 of IC50: 0.90
- Test smiles: "O=C1Cc2cc(-c3cc(C(F)(F)F)cc4[nH]ncc34)cnc2N1"
  log10 of IC50: 0.80
- Test smiles: "Nc1ncc(-c2cc(C(F)(F)F)cc3[nH]ncc23)cn1"
  log10 of IC50: 0.60
- Test smiles: "COc1ccc(CC(=O)NCCO)cc1-c1cc(C(F)(F)F)cc2[nH]ncc12"
  log10 of IC50: 1.20
- Test smiles: "COc1ccc(C(=O)N2CCOCC2)cc1-c1cc(C(F)(F)F)cc2[nH]ncc12"
  log10 of IC50: 1.00
- Test smiles: "Cc1nn(-c2nnn[nH]2)c(C)c1-c1cc(C(F)(F)F)cc2[nH]ncc12"
  log10 of IC50: 1.30
- Test smiles: "NC(=O)Cc1cccc(-c2cc(C(F)(F)F)cc3[nH]ncc23)c1"
  log10 of IC50: 1.00
- Test smiles: "Cc1nc(NS(=O)(=O)c2cnn(C)c2)ccc1-c1cc(C(F)(F)F)cc2[nH]ncc12"
  log10 of IC50: 0.90
- Test smiles: "Cc1nc2ccccn2c1-c1cc(C(F)(F)F)cc2[nH]ncc12"
  log10 of IC50: 2.40
- Test smiles: "Cc1nn(Cc2cnn(C)c2)c(CO)c1-c1cc(C(F)(F)F)cc2[nH]ncc12"
  log10 of IC50: 0.80
- Test smiles: "Nc1ncc(-c2cc(C(F)(F)F)cc3[nH]ncc23)c2cccnc12"
  log10 of IC50: 0.90
- Test smiles: "N#CCNC(=O)c1c[nH]c(=O)c(-c2cc(C(F)(F)F)cc3[nH]ncc23)c1"
  log10 of IC50: 1.10
- Test smiles: "FC(F)(F)c1cc(-c2ccc(OCC3CC3)nc2)c2cn[nH]c2c1"
  log10 of IC50: 1.10
- Test smiles: "CC(C)Oc1ncccc1-c1cc(C(F)(F)F)cc2[nH]ncc12"
  log10 of IC50: 1.20
- Test smiles: "COCC(=O)Nc1ccc(-c2cc(C(F)(F)F)cc3[nH]ncc23)c(C)n1"
  log10 of IC50: 0.90
- Test smiles: "COc1cccc(-c2cc(C(F)(F)F)cc3[nH]ncc23)n1"
  log10 of IC50: 0.80

---

biological target: human MetAP2 enzyme (Homo sapiens); assay: MetAP2 enzyme assay, enzyme complexed with manganese ions; details: MetAP2 Mn pIC50, MetAP2 enzyme complexed with manganese ions; Met-AMC substrate at Km
pIC50: −log10 of the molar value.
Here the recorded pIC50 is given for each entry.
Quantity name: pIC50

- Test smiles: "C[C@H](CO)Nc1ncc(-c2cc(C(F)(F)F)cc3[nH]ncc23)cn1"
  Quantity name: "pIC50"
  Data value: 8.10
- Test smiles: "Cc1cc(=O)[nH]cc1-c1cc(C(F)(F)F)cc2[nH]ncc12"
  Quantity name: "pIC50"
  Data value: 8.20
- Test smiles: "Cn1cc(-c2cc(C(F)(F)F)cc3[nH]ncc23)c(=O)n(Cc2ccc(F)cc2)c1=O"
  Quantity name: "pIC50"
  Data value: 7.20
- Test smiles: "Cc1c[nH]c2ncc(-c3cc(C(F)(F)F)cc4[nH]ncc34)cc12"
  Quantity name: "pIC50"
  Data value: 7.80

---

Here the recorded pIC50 is given for each entry.
molecular target: human MetAP2 enzyme (Homo sapiens, UniProt P50579); test: MetAP2 enzyme assay, enzyme complexed with cobalt ions; conditions: MetAP2 Co pIC50, MetAP2 enzyme complexed with cobalt ions; Met-AMC substrate at Km
Sequence (P50579 whole entry): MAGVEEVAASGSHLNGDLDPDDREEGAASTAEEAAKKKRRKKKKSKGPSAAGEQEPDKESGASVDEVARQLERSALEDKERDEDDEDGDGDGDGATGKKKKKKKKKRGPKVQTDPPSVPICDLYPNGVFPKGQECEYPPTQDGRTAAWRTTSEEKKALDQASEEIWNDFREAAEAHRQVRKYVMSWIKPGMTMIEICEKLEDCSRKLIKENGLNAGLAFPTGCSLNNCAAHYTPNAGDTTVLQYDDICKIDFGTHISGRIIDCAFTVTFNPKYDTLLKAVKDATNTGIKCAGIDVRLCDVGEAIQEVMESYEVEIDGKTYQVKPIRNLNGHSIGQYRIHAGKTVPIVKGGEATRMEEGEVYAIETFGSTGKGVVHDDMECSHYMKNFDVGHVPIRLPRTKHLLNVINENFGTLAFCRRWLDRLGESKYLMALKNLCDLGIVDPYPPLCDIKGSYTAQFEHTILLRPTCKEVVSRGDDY
pIC50: −log10 of the molar value.

- Compound: "Cc1nn(C)c2cc(-c3cc(C(F)(F)F)cc4[nH]ncc34)ccc12 [Example 67]"
  Target desc: "human MetAP2 enzyme (Homo sapiens, UniProt P50579)"
  pIC50: 7.70
- Compound: "CCn1nc(C)c(-c2cc(C(F)(F)F)cc3[nH]ncc23)c1C"
  Target desc: "human MetAP2 enzyme (Homo sapiens, UniProt P50579)"
  pIC50: 7.60
- Compound: "OCc1ccccc1-c1cc(C(F)(F)F)cc2[nH]ncc12"
  Target desc: "human MetAP2 enzyme (Homo sapiens, UniProt P50579)"
  pIC50: 7.40
- Compound: "NC(=O)c1cc(F)ccc1-c1cc(C(F)(F)F)cc2[nH]ncc12"
  Target desc: "human MetAP2 enzyme (Homo sapiens, UniProt P50579)"
  pIC50: 5.40
- Compound: "O=C(O)Cn1cc(-c2cc(C(F)(F)F)cc3[nH]ncc23)ccc1=O"
  Target desc: "human MetAP2 enzyme (Homo sapiens, UniProt P50579)"
  pIC50: 5.80
- Compound: "COc1cc(C)c(-c2cc(C(F)(F)F)cc3[nH]ncc23)cn1"
  Target desc: "human MetAP2 enzyme (Homo sapiens, UniProt P50579)"
  pIC50: 7.20
- Compound: "CS(=O)(=O)Nc1ccc(-c2cc(C(F)(F)F)cc3[nH]ncc23)cc1"
  Target desc: "human MetAP2 enzyme (Homo sapiens, UniProt P50579)"
  pIC50: 7.40
- Compound: "COc1ncc(-c2cc(C(F)(F)F)cc3[nH]ncc23)c2cc[nH]c12"
  Target desc: "human MetAP2 enzyme (Homo sapiens, UniProt P50579)"
  pIC50: 7.20
- Compound: "COc1ccn2c(-c3cc(C(F)(F)F)cc4[nH]ncc34)cnc2c1C#N"
  Target desc: "human MetAP2 enzyme (Homo sapiens, UniProt P50579)"
  pIC50: 7.10
